- procedure_details: Compound stability in human liver microsomes
- Type: in vitro ADME
- test_conditions: human liver microsomes; in vivo CLint extrapolated
We label by threshold. Values of CLint scaled at 5 μM strictly beneath 90 mL/min/kg are 1. Values of 90 mL/min/kg and up are 0.

Completed entries (count: 6):
INSERT INTO assay_data (smiles_str, class_label) VALUES
  ('CC[C@H](Nc1ncnc(N)c1-c1nc(COC)n(C)n1)c1nc2cccc(Cl)c2c(=O)n1C1CC1', 0),
  ('CC[C@H](Nc1ncnc(N)c1-c1nc(C)no1)c1nc2cccc(C)c2c(=O)n1C1CC1', 0),
  ('Cc1nnc(-c2c(N)ncnc2N[C@@H](C)c2nc3cccc(Cl)c3c(=O)n2-c2ccccc2)o1', 1),
  ('CC[C@H](Nc1ncnc(N)c1-c1nc(C(N)=O)n(C)n1)c1nc2cccc(Cl)c2c(=O)n1C1CC1', 1),
  ('Cc1noc(-c2c(N)ncnc2N[C@@H](C)c2nc3cccc(F)c3c(=O)n2-c2ccccc2)n1', 1),
  ('CC[C@@H](Nc1ncnc(N)c1-c1ccon1)c1nc2cccc(Cl)c2c(=O)n1C1CC1', 1);

Then there is this compound:
Problem: CLint scaled at 5 μM under 90 mL/min/kg? Item: CC[C@H](Nc1ncnc(N)c1-c1nnn(C)n1)c1nc2cccc(F)c2c(=O)n1-c1ccccc1
Solution: 0

---

- procedure_details: Pharmacokinetics after intravenous and oral administration in rats
- Format: in vivo, rat
- test_conditions: rat, plasma, iv dose 0.48 mg/kg, oral dose generally 5 or 10 mg/kg
quantity: bioavailability (%)
Write the answer as a number in %, unit excluded.

GET /value?item= CC[C@H](Nc1ncnc(N)c1-c1nnc(C)o1)c1nc2ccccc2c(=O)n1-c1ccccc1F [Ex. 24] &field=bioavailability returns 69.1

---

- procedure_details: Compound stability in human liver microsomes
- Type: in vitro ADME
- test_conditions: human liver microsomes 0.5 mg protein/mL, compound 5 μM, NADPH 1.0 mM, 37° C.
Measured log10(half-life at 5 μM), listed per entry.
Short version: log10 scale, half-life at 5 μM, min.

Illustrative cases are given below, each with its answer.
INSERT INTO results (smiles_str, recorded_value) VALUES
  ('Cc1noc(-c2c(N)ncnc2N[C@@H](C)c2nc3cccc(F)c3c(=O)n2-c2ccccc2)n1', 1.68),
  ('CC[C@H](Nc1ncnc(N)c1-c1ccccn1)c1nc2cccc(Cl)c2c(=O)n1C1CC1', 1.89),
  ('CC[C@H](Nc1ncnc(N)c1-c1nnc(C)o1)c1nc2cccc(Cl)c2c(=O)n1-c1ccccc1C', 1.58),
  ('CC[C@H](Nc1ncnc(N)c1-c1ccon1)c1nc2cccc(C)c2c(=O)n1C1CC1', 1.43),
  ('CC[C@H](Nc1ncnc(N)c1-c1nc(C)no1)c1nc2cccc(Cl)c2c(=O)n1[C@@H]1C[C@@H]1F', 1.70);

Just so you know, measured log10(half-life at 5 μM) for CC[C@H](Nc1ncnc(N)c1-c1nc(C)no1)c1nc2ccccc2c(=O)n1-c1ccccc1F came out at 1.18

GET /value?item= CC[C@H](Nc1ncnc(N)c1-c1nnc(C)o1)c1nc2cccc(F)c2c(=O)n1C1CC1 &field=log10(half-life at 5 μM) returns 2.18

So, CC[C@H](Nc1ncnc(N)c1-c1nnn(C)n1)c1nc2cccc(F)c2c(=O)n1-c1ccccc1 ? Its log10(half-life at 5 μM) was 0.85

log10(half-life at 5 μM) reading for CC[C@H](Nc1ncnc(N)c1-c1nnn(C)n1)c1nc2cccc(Cl)c2c(=O)n1C1CC1 : 1.63

// log10(half-life at 5 μM) value for CC[C@H](Nc1ncnc(N)c1-c1nc(C)no1)c1nc2cccc(C)c2c(=O)n1C1CC1 : 1.40

---

- procedure_details: Pharmacokinetics after intravenous and oral administration in rats
- Type: in vivo, rat
- test_conditions: rat, plasma, iv dosing, dose 0.5 mg/kg
Listed compounds paired with reported half-life

Worked examples follow.
INSERT INTO measurements (smiles_str, recorded_value) VALUES
  ('CC[C@H](Nc1ncnc(N)c1-c1nnc(C)o1)c1nc2cccc(Cl)c2c(=O)n1-c1ccccc1', '0.78 h'),
  ('CC[C@H](Nc1ncnc(N)c1-c1nnc(C)o1)c1nc2cccc(Cl)c2c(=O)n1-c1ccccc1C', '1.13 h'),
  ('CC[C@H](Nc1ncnc(N)c1-c1ncnn1C)c1nc2cccc(Cl)c2c(=O)n1-c1ccccc1', '1.2 h');

Record CC[C@H](Nc1ncnc(N)c1-c1ccccn1)c1nc2cccc(Cl)c2c(=O)n1C1CC1 . Reported half-life: 2.62 h

---

- procedure_details: Pharmacokinetics after intravenous and oral administration in mice
- Format: in vivo
- test_conditions: plasma; Mouse, iv dosing, dose 1 mg/kg; read-out: Vss
quantity: Vd (L/kg)
# value in L/kg; strip the unit string

INSERT INTO assay_data (smiles_str, recorded_value) VALUES
  ('Cc1nnc(-c2c(N)ncnc2N[C@@H](C)c2nc3cccc(Cl)c3c(=O)n2-c2ccccc2)o1', 0.41);

Vd reading for Cc1noc(-c2c(N)ncnc2N[C@@H](C)c2nc3cccc(Cl)c3c(=O)n2-c2ccccc2)n1 : 0.84

response.value for CC[C@H](Nc1ncnc(N)c1-c1nc(C)no1)c1nc2cccc(Cl)c2c(=O)n1C1CC1 (field: Vd) = 3.8

---

- procedure_details: Pharmacokinetics after intravenous and oral administration in rats
- Format: in vivo, rat
- test_conditions: iv dosing, dose 1 mg/kg
quantity: clearance (CL) (L/h/kg)
Just the number in L/h/kg, nothing appended.

Past entries and their recorded results:
INSERT INTO results (smiles_str, units_of_measure, recorded_value) VALUES
  ('CC[C@H](Nc1ncnc(N)c1-c1nc(C)no1)c1nc2cccc(Cl)c2c(=O)n1-c1ccccc1', 'L/h/kg', 4.25),
  ('CC[C@H](Nc1ncnc(N)c1-c1nc(C)no1)c1nc2cccc(C)c2c(=O)n1C1CC1', 'L/h/kg', 3.35),
  ('CC[C@H](Nc1ncnc(N)c1C1=N[C@@H](C)CO1)c1nc2cccc(Cl)c2c(=O)n1C1CC1', 'L/h/kg', 3.57),
  ('CC[C@H](Nc1ncnc(N)c1-c1nc(C)co1)c1nc2cccc(Cl)c2c(=O)n1C1CC1', 'L/h/kg', 5.14),
  ('CC[C@H](Nc1ncnc(N)c1-c1ncn(C)n1)c1nc2cccc(Cl)c2c(=O)n1-c1ccccc1', 'L/h/kg', 2.60),
  ('C[C@H](Nc1ncnc(N)c1-c1nnn(C)n1)c1nc2cccc(Cl)c2c(=O)n1C1CC1', 'L/h/kg', 4.92),
  ('CC[C@H](Nc1ncnc(N)c1-c1ncn(C)n1)c1nc2cccc(Cl)c2c(=O)n1-c1ccc(F)cc1', 'L/h/kg', 5.20);

Consider now this further compound.
The compound identified as CCc1nc(-c2c(N)ncnc2N[C@@H](C)c2nc3cccc(Cl)c3c(=O)n2C2CC2)no1 registered its clearance (CL) at 5.85

---

- procedure_details: Compound stability in rat liver microsomes
- Assay type: in vitro ADME
- test_conditions: pH 7.4; rat liver microsomes; in vivo CLint extrapolated
quantity: CLint scaled at 5 μM (mL/min/kg)
# output: bare number, implied unit mL/min/kg

For orientation, consider the following solved cases.
INSERT INTO assay_data (smiles_str, quantity, recorded_value) VALUES
  ('CC[C@H](Nc1ncnc(N)c1-c1nc(C)no1)c1nc2ccccc2c(=O)n1-c1ccccc1F', 'CLint scaled at 5 μM', 312),
  ('CC[C@H](Nc1ncnc(N)c1-c1ncn(C)n1)c1nc2cccc(Cl)c2c(=O)n1C1CC1', 'CLint scaled at 5 μM', 72.9),
  ('CC[C@H](Nc1ncnc(N)c1-c1noc(C)n1)c1nc2cccc(F)c2c(=O)n1C1CC1', 'CLint scaled at 5 μM', 126);

Okay, now this molecule:
Lab note: measured CLint scaled at 5 μM of C[C@H](Nc1ncnc(N)c1-c1nnn(C)n1)c1nc2cccc(Cl)c2c(=O)n1C1CC1 was 98.2

---

- procedure_details: Pharmacokinetics after intravenous and oral administration in dogs
- Assay type: in vivo
- test_conditions: plasma; Dog, iv dosing, dose 1 mg/kg; read-out: Vss
quantity: Vd (L/kg)
Only the number, expressed in L/kg, is required.

These solved cases illustrate the format of a correct answer.
INSERT INTO results (smiles_str, units_of_measure, recorded_value) VALUES
  ('Cc1nnc(-c2c(N)ncnc2N[C@@H](C)c2nc3cccc(Cl)c3c(=O)n2-c2ccccc2)o1', 'L/kg', 0.48),
  ('CC[C@H](Nc1ncnc(N)c1-c1nc(C)no1)c1nc2cccc(Cl)c2c(=O)n1C1CC1', 'L/kg', 6.01);

Please look at the following compound next.
Record summary for Cc1noc(-c2c(N)ncnc2N[C@@H](C)c2nc3cccc(Cl)c3c(=O)n2-c2ccccc2)n1 : reported Vd = 4.25

---

Below is a list of entries, each paired with its recorded CLint scaled at 5 μM value.
- procedure_details: Compound stability in human liver microsomes
- Format: in vitro ADME
- test_conditions: human liver microsomes; in vivo CLint extrapolated
Respond with the bare value in mL/min/kg.

INSERT INTO measurements (compound, quantity, units_of_measure, recorded_value) VALUES
  ('CC[C@H](Nc1ncnc(N)c1-c1ncnn1C)c1nc2cccc(Cl)c2c(=O)n1-c1ccccc1 [Ex. 10]', 'CLint scaled at 5 μM', 'mL/min/kg', 18.9),
  ('Cc1noc(-c2c(N)ncnc2N[C@@H](C)c2nc3cccc(Cl)c3c(=O)n2C2CC2)n1 [Ex. 41]', 'CLint scaled at 5 μM', 'mL/min/kg', 42.4),
  ('CC[C@H](Nc1ncnc(N)c1C1=N[C@@H](C)CO1)c1nc2cccc(Cl)c2c(=O)n1-c1ccccc1 [Ex. 6]', 'CLint scaled at 5 μM', 'mL/min/kg', 560),
  ('CC[C@H](Nc1ncnc(N)c1-c1nnc(C)o1)c1nc2cccc(Cl)c2c(=O)n1-c1cccc(F)c1 [Ex. 34]', 'CLint scaled at 5 μM', 'mL/min/kg', 58.3),
  ('CC[C@H](Nc1ncnc(N)c1-c1nc(C)no1)c1nc2cccc(Cl)c2c(=O)n1[C@@H]1C[C@@H]1F [Ex. 62]', 'CLint scaled at 5 μM', 'mL/min/kg', 34.5),
  ('Cc1noc(-c2c(N)ncnc2N[C@@H](C)c2nc3cccc(Cl)c3c(=O)n2-c2ccccc2)n1 [Ex. 65]', 'CLint scaled at 5 μM', 'mL/min/kg', 52.5),
  ('CC[C@H](Nc1ncnc(N)c1-c1nc(C)no1)c1nc2cccc(F)c2c(=O)n1C1CC1 [Ex. 23]', 'CLint scaled at 5 μM', 'mL/min/kg', 56);

Lab note: CC[C@H](Nc1ncnc(N)c1-c1nnc(C)o1)c1nc2cccc(Cl)c2c(=O)n1C1CC1 [Ex. 2] gave CLint scaled at 5 μM of 54.1
